target: MRGPRX2 (Homo sapiens, UniProt Q96LB1); assay: PathHunter β-arrestin assay; details: antagonist mode vs EC80 of control agonist, 10-point curve
Sequence (Q96LB1 whole entry): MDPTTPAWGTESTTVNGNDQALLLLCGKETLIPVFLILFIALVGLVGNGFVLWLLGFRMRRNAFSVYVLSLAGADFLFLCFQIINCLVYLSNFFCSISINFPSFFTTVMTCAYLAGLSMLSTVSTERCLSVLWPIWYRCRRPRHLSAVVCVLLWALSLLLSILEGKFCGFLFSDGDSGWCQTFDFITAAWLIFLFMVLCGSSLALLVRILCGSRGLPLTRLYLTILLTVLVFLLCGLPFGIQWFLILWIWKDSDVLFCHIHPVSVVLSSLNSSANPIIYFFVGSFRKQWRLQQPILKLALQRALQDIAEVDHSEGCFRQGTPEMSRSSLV
pIC50: −log10 of the molar value.

| smiles_string | target_entity | pIC50 |
| --- | --- | --- |
| COC(=O)[C@@H](NC(=O)c1nn(Cc2ccc(F)cc2)c2ccccc12)C(C)C | MRGPRX2 (Homo sapiens, UniProt Q96LB1) | 4.93 |

====

Biological target: HCRTR1 (Homo sapiens, UniProt O43613)
Sequence (O43613 1-425): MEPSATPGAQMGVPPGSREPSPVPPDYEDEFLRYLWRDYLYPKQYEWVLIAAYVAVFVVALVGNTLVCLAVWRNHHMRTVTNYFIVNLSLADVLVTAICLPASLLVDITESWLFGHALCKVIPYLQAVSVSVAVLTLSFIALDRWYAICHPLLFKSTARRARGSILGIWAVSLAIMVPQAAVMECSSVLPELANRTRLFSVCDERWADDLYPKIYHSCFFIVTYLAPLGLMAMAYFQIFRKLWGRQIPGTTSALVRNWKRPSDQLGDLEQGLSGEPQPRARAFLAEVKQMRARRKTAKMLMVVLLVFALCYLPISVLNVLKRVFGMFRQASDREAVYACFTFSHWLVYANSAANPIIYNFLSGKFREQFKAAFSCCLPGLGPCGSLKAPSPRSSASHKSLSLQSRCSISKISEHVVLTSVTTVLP
Test: PathHunter β-arrestin assay
Assay type: cell-based
Conditions: follow-up assays, control antagonist
value_kind: IC50

| smiles_string | target_entity | value_kind | observed_result |
| --- | --- | --- | --- |
| Cc1cc(NC(=O)Nc2ccc(N(C)C)cc2)c2cc(F)cc(F)c2n1 | HCRTR1 (Homo sapiens, UniProt O43613) | IC50 | 74.4 nM |
